For each record, write down the corresponding Kd.
- ASSAY SYSTEM: SARS-CoV-2 spike protein receptor binding domain (RBD2) (SARS-CoV-2, UniProt P0DTC2 319-537)
- TEST SUMMARY: flow cytometry, yeast-displayed scFv, titration of biotinylated antigen
Answers are plain numbers, in nM.

The following binders have reported results that may help.
E08 scFv (scFv) scFv: SYVLTQPPSVSVAPGKTARITCGGNNIGWKSVHWYQQKPGQAPVLVVYDDSDRPSGIPERFSGSNSGNTATLTISRVEAGDEADYYCQVWDSSSDLVVFGGGTKLTVLSGGSTITSYNVYYTKLSSSGTQVQLVQSGAEVKKPGSSVKVSCKASGGTFSSYAISWVRQAPGQGLEWMGGIIPIFGTANYAQKFQGRVTITADESTSTAYMELSSLRSEDTAVYYCARASGRWLQFWHYYGMDVWGQGTTVTVSS : 13.9
B04 scFv (scFv) scFv: SYVLTQPPSVSVAPGKTARITCGGNNIGIRSVHWYQQKPGQAPVLVIYYDSDRPSGIPERFSGSKSGNTATLTISRVEAGDEADYYCQVWDSSSDHPVFGGGTKLTVLSGGSTITSYNVYYTKLSSSGTQVQLVESGAEVKKPGASVKVSCKASGYTFTRYYMHWVRQAPGQGLEWMGIINPSGGTTSYAQKFQGRVTMTRDTSTSTVYMELSSLRSEDTAVYYCARSFGELTSFDYWGQGTLVTVSS : 13.9
R04 scFv (scFv) scFv: EIVMTQSPSSLSASVGDRVTITCQASQDISNYLNWCQQKPGKAPKLLIYDASNLETGVPSRFSGSGSGTGFTFTISSLQPEDFATYYCQQSYSTPYTFGQGTKVEIKSGGSTITSYNVNYTKLSSSGAQVQLQQSGPGLVKSSQTLSLTCAISGDSVSSNGAAWHWIRQSPSRGLEWLGRTYYRSGWYNDYAVSVKSRITINQDTSKNQFSLQLNSVTPEDTAVYFCAREGGGGRMDVWSQGTTVTVSS : 293
D07 scFv (scFv) scFv: SYELTQPPSVSVAPGETARMTCGGNNIGTKGVHWYQQKPGQAPVLVVYDDSDRPSGIPERFSGSNAGNTATLTISRVEAGDEADYYCQVWDSRSDQYVFGTRTKLTVLSGGSTITSYNVYYTKLSSSGAQVTLKESGPVLVKPTETLTLTCTVSGFSLSNARMGVSWIRQPPGKALEWLAHIFSNGEKSYSTSLKSRLTISKDTSKSQVVLTMTNMDPVDTATYYCARTLDYYDSSGYLVGGAFDIWGQGTMVTVSS : 113
R26 scFv (scFv) scFv: SYELTQPPSVSVAPGQTATITCGGKNIESKSVHWYQQKPGQAPVLVVSDDTDRASGIPERFSGSNSGGAATLTISRVEAGDEADYYCQVWDSPSDHYVFGPGTKLTVLSGGSTITSYNVYYTKLSSSGTQVQLVESGGGVVQPGRSLRLSCAASGFTFSSYAMHWVRQAPGKGLEWVAVISYDGSNKYYADSVKGRFTISRDKAKNTLYLQMNSLRGEDTAVYYCARELSYYDSSGYLRGDWYFDLWGRGTLVTVSS : 65.3

Recorded Kd for H05 scFv (scFv, also called H5) scFv: SYVLTQPPSVSVAPGQTARITCGANNIGRISVHWYQQKPGQAPVLVVYDDSDRPSGIPERFSGSNFGNTATLTISRVEAGDEADYYCQVWDSYSDHVIFGGGTKLTVLSGGSTITSYNVYYTKLSSSGTQVQLVQSGAEVKKPGSSVKVSCKASGGTFSSYAISWVRQAPGQGLEWMGGIIPIFGTANYAQKFQGRVTITADESTSTAYMELSSLRSEDTAVYYCARSIFGVVIISHADGYYYGMDVWGQGTTVTVSS , please? 16.7
